Target: HLA-A*0201 (Homo sapiens, UniProt P04439, D140Y/D185E/D98H/E176V/E277Q/G131W/G231S/I119V/I121R/I166T/I218V/L300P/L318F/N151K/N90K/P208A/P217A/Q86G/Q94H/R138H/R169H/T345S)
Settings: Table 14, Example 8
Concentration of peptide that induces 20% of HLA-A2 expression vs 10 µM: less than gives 1.0; not less than gives 0.0.

- ordered.residues: "LMDLSTTEV [FOXM1-B2]"
  label.class: 1.0
- ordered.residues: "RVSSYLVPI (listed as Homo sapiens) [FOXM1-H, reference compound]"
  label.class: 0.0
- ordered.residues: "FMLGEFLKL [BIRC5-B1]"
  label.class: 1.0
- ordered.residues: "GLLGEFLQI [BIRC5-B3]"
  label.class: 0.0
- ordered.residues: "FLPFGFILV [IL13RA2-B]"
  label.class: 1.0

Is Concentration of peptide that induces 20% of HLA-A2 expression of LTLGEFLKL (listed as Homo sapiens) [BIRC5-H, reference compound] strictly below 10 µM? 0.0

Is Concentration of peptide that induces 20% of HLA-A2 expression of YTLGEFLYI [BIRC5-B2] strictly below 10 µM? 0.0

Is Concentration of peptide that induces 20% of HLA-A2 expression of RLSSYLVEI [FOXM1-B] strictly below 10 µM? 0.0

Is Concentration of peptide that induces 20% of HLA-A2 expression of LMDLSTTPL (listed as Homo sapiens) [FOXM1-H2, reference compound] strictly below 10 µM? 0.0
